The entries below are paired with their reported pKd.
- experimentalTarget: MAGI2_5, Q86UL8
- Sequence (Q86UL8 915-1017): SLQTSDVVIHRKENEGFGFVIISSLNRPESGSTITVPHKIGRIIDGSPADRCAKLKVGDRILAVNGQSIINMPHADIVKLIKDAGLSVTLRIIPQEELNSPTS
- testMethodNotes: holdup assay
- Parameters: key: below the threshold = too weak to quantify, mostly under pKd 3.1 to 4
- conditionSummary: plain residues with an end cap or a label only (N-terminal biotin on a linker: ahx)
endpoint: pKd

HTHSYIETHV [CNKSR2, Q8WXI2]	4.83
QNTDDVQTSF [ACE2, Q9BYF1]	4.21
QPRTWLQSPV [RTKN, Q9BST9]	4.33
QDEKVKESYV [ABCA1, O95477]	4.58
TQKFRASTAL [FRMPD1, Q5SYB0]	3.59
